The reported numbers originate from paper PMC3039446.

- Tested on: PC-3
- PROTOCOL_NOTES: SRB cytotoxicity assay, PC-3
- Type: cell-based, human
- RUN_CONDITIONS: read-out: IC50 ± SEM; PC-3 prostate, SRB, n = 3
REPORTED_PROPERTY: IC50 (nM)
Response body: numeric value in nM, unit text excluded.

IN: Query: IC50; subject: COc1cc(C(=O)c2csc(-c3ccc(O)cc3)n2)cc(OC)c1OC [SMART-OH]
OUT: 87

====

- System: PC-3 cells
- Type: cell-based, human
- RUN_CONDITIONS: PC-3 cells from ATCC (in vitro control)
REPORTED_PROPERTY: IC50 (nM)
Response body: numeric value in nM, unit text excluded.

IN: Query: IC50; subject: `COc1cc(C(=O)c2csc(-c3ccccc3)n2)cc(OC)c1OC`
OUT: 29.1

====

- Test system: PC-3 cells
- Format: cell-based, human
- RUN_CONDITIONS: dissociated cells from SMART-H (15 mg/kg, 21 days) treated PC-3 tumors
REPORTED_PROPERTY: IC50 (nM)
Response body: numeric value in nM, unit text excluded.

IN: Query: IC50; subject: COc1cc(C(=O)c2csc(-c3ccccc3)n2)cc(OC)c1OC [SMART-H]
OUT: 30.4

====

Quick list: pIC50 per entry.
- Test system: OVCAR-8
- PROTOCOL_NOTES: SRB cytotoxicity assay, OVCAR-8
- Assay type: cell-based, human
- RUN_CONDITIONS: read-out: IC50 ± SEM; OVCAR-8 ovarian (parent), SRB, n = 3
Notebook: values listed as pIC50 are -log10 of the concentration (mol/L).

COc1cc(C(=O)c2csc(-c3ccc(F)cc3)n2)cc(OC)c1OC	7.47
COc1cc(C(=O)c2csc(-c3ccc(O)cc3)n2)cc(OC)c1OC	6.96

Turning to the following compound.
IN: Query: pIC50; subject: `COc1cc(C(=O)c2csc(-c3ccccc3)n2)cc(OC)c1OC`
OUT: 7.46
